# TEST SYSTEM: PLA2 (derived from pig pancreas) (Sus scrofa, UniProt P00592)
# Sequence (P00592 23-146): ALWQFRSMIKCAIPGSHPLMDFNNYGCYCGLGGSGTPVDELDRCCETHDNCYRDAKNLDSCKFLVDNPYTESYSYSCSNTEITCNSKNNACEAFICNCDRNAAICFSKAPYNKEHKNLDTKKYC
Structures can show the parent of a compound that is named as a salt.
Answer each item with its documented pIC50.
One number for each entry, as −log10 of the molar value.

COMPOUND: CCOC(=O)CN(C(=O)/C(C)=C/c1ccc(C(=O)Oc2ccc(NC(=N)N)cc2)cc1)c1ccccc1 [Hydrochloride of compound 6]
pIC50: 5.30

Turning to the following compound.
Record summary for CCOC(=O)CN(C(=O)/C=C/c1ccc(C(=O)Oc2ccc(NC(=N)N)cc2)cc1)c1ccccc1 [Hydrochloride of compound 5] : reported pIC50 = 5.10

====

Answer each item with its documented IC50.
# TEST SYSTEM: trypsin (derived from bovine pancreas) (Bos taurus)
# Sequence (P00760 24-246): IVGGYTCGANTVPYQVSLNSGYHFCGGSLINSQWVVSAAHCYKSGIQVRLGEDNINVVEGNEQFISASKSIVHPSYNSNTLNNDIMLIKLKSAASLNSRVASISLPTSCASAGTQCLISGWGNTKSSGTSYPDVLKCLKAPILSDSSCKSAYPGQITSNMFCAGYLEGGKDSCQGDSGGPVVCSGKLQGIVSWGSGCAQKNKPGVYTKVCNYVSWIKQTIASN
Counter-ions that a name gives are not always drawn.
Numbers only, in nM.

Worked examples follow.
MOLECULE: C=CCN(CC(=O)OCC)C(=O)/C(C)=C/c1ccc(C(=O)Oc2ccc(NC(=N)N)cc2)cc1 [Acetate of compound 13]
IC50 / nM: 160
--
MOLECULE: CCOC(=O)CN(C(=O)/C(C)=C/c1ccc(C(=O)Oc2ccc(NC(=N)N)cc2)cc1)c1ccccc1 [Hydrochloride of compound 6]
IC50 / nM: 110
--
MOLECULE: CCOC(=O)[C@@H]1CCCN1C(=O)/C=C/c1ccc(C(=O)Oc2ccc(NC(=N)N)cc2)cc1 [Acetate of compound 10]
IC50 / nM: 180

Turning to the following molecule.
Log: trypsin (derived from bovine pancreas) (Bos taurus), molecule CCOC(=O)C1CCCCN1C(=O)/C=C/c1ccc(C(=O)Oc2ccc(NC(=N)N)cc2)cc1 (stereo not shown) [Acetate of compound 7] , IC50 = 180
